- test: pH solubility
- Type: physicochemical
- assay.context: upper pH
Measured pH Range where Protein is >80% detected as Soluble and A650 <1 OD: High accompanies every entry in the list below.
Reply briefly: the number, and no unit.

// worked examples, pH Range where Protein is >80% detected as Soluble and A650 <1 OD: High included
Kindly note the recorded pH Range where Protein is >80% detected as Soluble and A650 <1 OD: High for SEQID-00265: nutritive polypeptide (protein, listed as Bos taurus) SEGDRLRVELAEKANKLQNELDNVSTLLEEAEKKGIKFAKDAAGLESQLQDTQELLQEETRQKLNLSSRIRQLEEERSSLQEQQEEEEEARRSLEKQLQALQAQLTDTKKKVDDDLGTIENLEEAKKKLLKDVEVLSQRLEEKALAYDKLEKTKTRLQQELDDLLVDLDHQRQIVSNLEKKQKKFDQLLAEEKNISARYAEERDRAEAEAREKETKALSLARALEEALEAREEAERQNKQLRADMEDLMSSKDDVGKNVHELEKSKRALE , which is 9.1

Kindly note the recorded pH Range where Protein is >80% detected as Soluble and A650 <1 OD: High for SEQID-00287: nutritive polypeptide (protein, listed as Saccharomyces cerevisiae, source: /note="strain ATCC 204508 / S288c", nutritive polypeptide) LVLGALLDTSHKFRNLDKDLCEKCAKCISMIGVLDVTKHEFKRTTYSENEVYDLNDSVQTIKFLIWVINDILV , which is 9.1

Next up:
Kindly note the recorded pH Range where Protein is >80% detected as Soluble and A650 <1 OD: High for SEQID-00622: protein of the 168 nutritive polypeptide library (protein, listed as Oryza sativa, source: /note="subsp. japonica", protein of the 168 nutritive polypeptide library) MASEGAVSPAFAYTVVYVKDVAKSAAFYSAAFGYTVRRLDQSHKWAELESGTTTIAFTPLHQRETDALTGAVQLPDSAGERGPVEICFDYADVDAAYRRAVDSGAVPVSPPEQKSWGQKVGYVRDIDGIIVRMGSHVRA , which is 7.1
